- test: Particle characteristics of LNPs containing luciferase mRNA and novel ionizable lipids
- Format: physicochemical
- condition parameters: Table 5; luciferase mRNA LNP 1.6:54.6:32.8:10.9
- Description: The lipid solution contains 4 components: a PEG-conjugated lipid, an ionizable lipid, cholesterol, and a phospholipid (e.g., DSPC). Lipid stocks were prepared using the lipid identities and molar ratios as described, to achieve a total concentration of ˜7 mg/mL in 100% ethanol. […] Nucleic acid concentration was determined by the RiboGreen assay. Particle size and polydispersity were determined using a Malvern Nano Series Zetasizer. […]
endpoint name: Final Product % EE

Some molecules with recorded Final Product % EE:
                                   molecule  experimental_result
0  CCCCC/C=C\CCCC(CCC/C=C\CCCCC)C(CCC/C=C\CCCCC)OC(=O)CCCCN(C)C (stereo not drawn) [Compound 13-B43, reference compound]                  98%
1  CCCCCCCCCCC(CCCCCCC(=O)OCC(CCCCCC)CCCCCCCC)N(OCCCN(C)C)C(=O)CCCCCCC(=O)OCC(CCCC)CCCCCC (stereo not drawn)                  94%

Continue with the molecule presented below.
Quick one: Final Product % EE of CCCCCCCCCCC(CCCCC(=O)OCC(CCCCCC)CCCCCCCC)N(CCCCCCCCCC)C(=O)CCCN(C)C (stereo not drawn) ?
96%

----------
- test: Particle characteristics of LNPs containing luciferase mRNA and novel ionizable lipids
- Assay type: physicochemical
- condition parameters: Table 7; luciferase mRNA LNP 1.6:54.6:32.8:10.9
The compounds listed here are annotated with their Final Product PDI.

Some compounds with recorded Final Product PDI:
compound	experimental result
CCCCCCCCCCN(C(=O)CCCN(C)C)C(CCCCCCCCC)CCCCCCC(F)C(=O)OCC(CCCCCC)CCCCCCCC (centres unmarked) [Compound 77]	0.09
CCCCCCCCCC(CCCCCCC(F)C(=O)OCCC(CCCCC)CCCCC)N(CCCCCCCC(=O)OCCC(CCCCC)CCCCC)C(=O)CCCN(C)C (centres unmarked) [Compound 88]	0.04
CCCCC/C=C\CCCC(CCC/C=C\CCCCC)C(CCC/C=C\CCCCC)OC(=O)CCCCN(C)C (centres unmarked) [Compound 13-B43, reference compound]	0.06
CCCCCCCCCCON(C(=O)CCCN(C)C)C(CCCCCCCCCC)CCCCCCC(F)(F)C(=O)OCCC(CCCCC)CCCCC (centres unmarked) [Compound 39]	0.19

Continue with the compound presented below.
Quick one: Final Product PDI of CCCCCCCCCC(CCCCCCC(F)C(=O)OCCC(CCCCC)CCCCC)N(CCCCCC(F)C(=O)OCCC(CCCCC)CCCCC)C(=O)CCCN(C)C (centres unmarked) [Compound 34] ?
0.10

----------
- test: Particle characteristics of LNPs containing EGFP mRNA and novel ionizable lipids
- Type: physicochemical
- condition parameters: Table 22; EGFP mRNA LNP 1.6:54.6:32.8:10.9
Assign Y whenever Final Product PDI does not fall below 0.06; assign N whenever it does.

>>> df
                                   molecule  answer_label
0  CCCCCCCCCCN(C(=O)CCCN(C)C)C(CCCCCCCCC)CCCCCCC(F)C(=O)OC(CCCCCCCC)CCCCCCCC (centres unmarked)             N

Answer whether Final Product PDI of CCCCCCCCCCN(C(=O)CCCN(C)C)C(CCCCCCCCC)CCCCC(F)(F)C(=O)OC(CCCCC)CCCCC (centres unmarked) is greater than or equal to 0.06.
Y

Follow-up entry: CCCCCCCCCCON(C(=O)CCCN(C)C)C(CCCCCCCCCC)CCCCCCC(F)(F)C(=O)OC(CCCCCCC)CCCCCCC (centres unmarked)
Y

Follow-up entry: CCCCCCCCCCN(C(=O)CCCN(C)C)C(CCCCCCCCC)CCCCCCC(F)C(=O)OC(CCCCCC)CCCCCC (centres unmarked)
N

Follow-up entry: CCCCCCCCCCN(C(=O)CCCN(C)C)C(CCCCCCCCC)CCCCCCC(F)C(=O)OC(CCCCC)CCCCC (centres unmarked)
Y

----------
- test: Parent ionizable lipid remaining in liver at 24 h after EGFP mRNA LNP (LC-MS)
- Format: in vivo
- condition parameters: Table 31; 24 h after IV 0.5 mg/kg EGFP mRNA LNP, female BALB/c mice (n = 4)
endpoint name: Parent ionizable lipid remaining in liver, Average (nmol/g liver)
Unit nmol/g liver implied. Number only.

In [3]: df
Out[3]:
                                   compound   output_unit  experimental_result
0  CCCCC/C=C\CCCC(CCC/C=C\CCCCC)C(CCC/C=C\CCCCC)OC(=O)CCCCN(C)C (centres unmarked) [Compound 13-B43, reference compound]  nmol/g liver                 23.9

Continue with the compound presented below.
Quick one: Parent ionizable lipid remaining in liver, Average of CCCCCCCCCCN(C(=O)CCCN(C)C)C(CCCCCCCCC)CCCCC(F)C(=O)OC(CCCCCC)CCCCCC (centres unmarked) ?
2.1

----------
- test: Particle characteristics of LNPs containing EGFP mRNA and novel ionizable lipids
- Format: physicochemical
- condition parameters: Table 22; EGFP mRNA LNP 1.6:54.6:32.8:10.9
endpoint name: Final Product PDI

Some compounds with recorded Final Product PDI:
compound	Final Product PDI
CCCCC/C=C\CCCC(CCC/C=C\CCCCC)C(CCC/C=C\CCCCC)OC(=O)CCCCN(C)C (stereo not shown) [Compound 13-B43, reference compound]	0.08
CCCCCCCCCCN(C(=O)CCCN(C)C)C(CCCCCCCCC)CCCCC(F)(F)C(=O)OC(CCCCCCCC)CCCCCCCC (stereo not shown) [Compound 110]	0.11
CCCCCCCCCCC(CCCCCCC(=O)OC(CCCCCC)CCCCCC)N(CCCCCCC(F)(F)C(=O)OC(CCCCCC)CCCCCC)C(=O)CCCN(C)C (stereo not shown) [Compound 116]	0.09
CCCCCCCCCCN(C(=O)CCCN(C)C)C(CCCCCCCCC)CCCCCCC(F)(F)C(=O)OC(CCCCCCCC)CCCCCCCC (stereo not shown) [Compound 104]	0.07
CCCCCCCCCCC(CCCCCCC(=O)OCCC(CCCCCC)CCCCCC)N(CCCCCCCCCC)C(=O)OCCCN(C)C (stereo not shown) [Compound 105]	0.08
CCCCCCCCCCC(CCCCCCCC(=O)OCC(CCCCCC)CCCCCCCC)N(CCCCCCCCCC)C(=O)CCN(C)C (stereo not shown) [Compound 119]	0.09

Continue with the compound presented below.
Quick one: Final Product PDI of CCCCCCCCCCN(C(=O)CCCN(C)C)C(CCCCCCCCC)CCCCCCC(F)C(=O)OC(CCCCCCC)CCCCCCC (stereo not shown) [Compound 114] ?
0.08

----------
- test: Particle characteristics of LNPs containing EGFP mRNA and novel ionizable lipids
- Format: physicochemical
- condition parameters: Table 22; EGFP mRNA LNP 1.6:54.6:32.8:10.9
endpoint name: Final Product % EE
Please don't drop the unit; write it after the number.

>>> df
                                   compound       endpoint_name  experimental_result
0  CCCCC/C=C\CCCC(CCC/C=C\CCCCC)C(CCC/C=C\CCCCC)OC(=O)CCCCN(C)C (stereo not shown) [Compound 13-B43, reference compound]  Final Product % EE                  97%

Quick one: Final Product % EE of CCCCCCCCCCN(C(=O)CCCN(C)C)C(CCCCCCCCC)CCCCCCC(F)C(=O)OC(CCCCCC)CCCCCC (stereo not shown) ?
98%

Follow-up entry: CCCCCCCCCCC(CCCCCCCC(=O)OCC(CCCCCC)CCCCCCCC)N(CCCCCCCCCC)C(=O)CCN(C)C (stereo not shown)
97%

Follow-up entry: CCCCCCCCCCC(CCCCCCC(=O)OCC(CCCCCC)CCCCCCCC)N(CCCCCCCCCC)C(=O)CCN(C)C (stereo not shown)
98%

----------
- test: Particle characteristics of LNPs containing EGFP mRNA and novel ionizable lipids
- Assay type: physicochemical
- condition parameters: Table 21; EGFP mRNA LNP 1.6:54.6:32.8:10.9
endpoint name: Final Product PDI
Number only, no unit.

>>> df
                                   molecule  experimental_result
0  CCCCCCCCCCON(C(=O)CCCCN(C)C)C(CCCCCCCCCC)CCCCCCC(=O)OCCC(CCCCCC)CCCCCC (stereo not shown)                 0.07
1  CCCCCC/C=C\CCON(C(=O)CCCCN(C)C)C(CCCCCCCCCC)CCCCCCC(=O)OCCC(CCCCC)CCCCC (stereo not shown)                 0.06
2  CCCCCCCCCCN(C(=O)CCCN(C)C)C(CCCCCCCCC)CCCCCCC(F)(F)C(=O)OC(CCCCCC)CCCCCC (stereo not shown)                 0.09

Quick one: Final Product PDI of CCCCCCCCCCN(C(=O)CCCN(C)C)C(CCCCCCCCC)CCCCC(F)(F)C(=O)OC(CCCCCCC)CCCCCCC (stereo not shown) ?
0.10

meta.source: patent US20250332112A1
